Reference source: IntAct's records for PubMed 25910212

B1: Vitamin D3 receptor (Homo sapiens), P11473 (parent)
chain: MEAMAASTSLPDPGDFDRNVPRICGVCGDRATGFHFNAMTCEGCKGFFRRSMKRKALFTCPFNGDCRITKDNRRHCQACRLKRCVDIGMMKEFILTDEEVQRKREMILKRKEEEALKDSLRPKLSEEQQRIIAILLDAHHKTYDPTYSDFCQFRPPVRVNDGGGSHPSRPNSRHTPSFSGDSSSSCSDHCITSSDMMDSSSFSNLDLSEEDSDDPSVTLELSQLSMLPHLADLVSYSIQKVIGFAKMIPGFRDLTSEDQIVLLKSSAIEVIMLRSNESFTMDDMSWTCGNQDYKYRVSDVTKAGHSLELIEPLIKFQVGLKKLNLHEEEHVLLMAICIVSPDRPGVQDAALIEAIQDRLSNTLQTYIRCRHPPPGSHLLYAKMIQKLADLRSLNEEHSKQYRCLSFQPECSMKLTPLVLEVFGNEIS

Variants of: B1
run parameters: with meox2_human MEOX2, P50222
Sequence (P50222 whole entry): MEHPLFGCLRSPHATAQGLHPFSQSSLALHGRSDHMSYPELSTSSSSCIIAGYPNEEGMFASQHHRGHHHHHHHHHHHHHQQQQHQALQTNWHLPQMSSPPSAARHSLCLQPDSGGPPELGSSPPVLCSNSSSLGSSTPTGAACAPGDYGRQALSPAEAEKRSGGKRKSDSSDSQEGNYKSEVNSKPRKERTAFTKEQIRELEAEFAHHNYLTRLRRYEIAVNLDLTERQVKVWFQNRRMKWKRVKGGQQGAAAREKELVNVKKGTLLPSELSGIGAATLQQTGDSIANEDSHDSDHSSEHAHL
quantity: effect of a mutation on the interaction

>>> result("G33D")
"with no effect"
>>> result("I268T")
"with no effect"
